Assay: Mice serum protein binding assay (equilibrium dialysis, RED Device)
Format: in vitro ADME
Conditions: CD-1 (ICR), mouse, pH 7.4, murine serum, 37° C., 5 to 6 hours, read-out: Protein binding rate (converted)
Procedure: The protein binding rate was determined by equilibrium dialysis method using the RED Device (8K MWCO, Rapid Equilibrium Dialysis Device, Thermo Scientific). […] The proteins were removed from the measurement sample by adding acetonitrile in an amount of 5-fold or more of the amount of the internal standard substance and the serum sample, and the supernatants were measured by LC/MS/MS (liquid chromatograph-triple quadrupole mass spectrometer). […]
assay-metric: fraction unbound
# respond with the number and nothing more

Quick one: fraction unbound of "CC[C@]1(c2cccc(NS(C)(=O)=O)c2)[C@@H]2CN(CC3(O)Cc4ccccc4C3)C[C@@H]21" ?
0.068
